Listed here: items and their measured Residual rate.
- METHOD_NOTES: Evaluation of conversion rate to active form in buffer solution (Experimental Example 1)
- Assay type: physicochemical
- DETAILS: pH5.0, 0.5 hr
Phrase the answer as number then unit, nothing more needed.

Known results for compounds:
CN1CC[C@H](c2c(OC(=O)N(C)CCN)cc(O)c3c(=O)cc(-c4ccccc4Cl)oc23)[C@H](O)C1 [Comparative Example 13, reference compound] = 96.0%
CNCCN(C)C(=O)Oc1cc(O)c2c(=O)cc(-c3ccccc3Cl)oc2c1[C@H]1CCN(C)C[C@H]1O [Comparative Example 14, reference compound] = 80.3%
CNC(=O)Oc1cc(O)c2c(=O)cc(-c3ccccc3Cl)oc2c1[C@H]1CCN(C)C[C@H]1O [Comparative Example 2, reference compound] = 66.9%

The record that follows has no Residual rate shown yet.
Task: # Residual rate lookup, item CN1CC[C@H](c2c(O)cc(O)c3c(=O)cc(-c4ccccc4Cl)oc23)[C@H](OC(=O)CN)C1 [Comparative Example 8, reference compound]
Result: 81.9%
